# key: entry, value: aptazyme ON/OFF ratio
B1: Pistol ribozyme (parent)
chain: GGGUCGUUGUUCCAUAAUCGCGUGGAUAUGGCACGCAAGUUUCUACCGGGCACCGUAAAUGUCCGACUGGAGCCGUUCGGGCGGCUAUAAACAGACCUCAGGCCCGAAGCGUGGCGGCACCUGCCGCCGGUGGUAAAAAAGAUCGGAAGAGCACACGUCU

Variants of: B1
Experiment: aptazyme ON/OFF ratio, guanine; higher = stronger switching; co-transcriptional cleavage with and without guanine
assay_metric: aptazyme ON/OFF ratio

| variant_descriptor | assay_metric | result |
| --- | --- | --- |
| U7G U8C U11A C12U C13G | aptazyme ON/OFF ratio | 1.14 |
| U7G U8A G9A U11G C12U C13A | aptazyme ON/OFF ratio | 1.22 |
| U8A G9C U10A C12U C13A | aptazyme ON/OFF ratio | 1.09 |
| U7A G9A U10C U11C C12G | aptazyme ON/OFF ratio | 1.09 |
| U7A U8G G9U U10C U11G C12U C13U | aptazyme ON/OFF ratio | 1.53 |
| U7G U8G G9A U10G U11C | aptazyme ON/OFF ratio | 1.05 |
| U7A U8A G9U U10C U11A C12A C13A | aptazyme ON/OFF ratio | 1.2 |
| U7C U8G G9U U11A C12U C13U | aptazyme ON/OFF ratio | 1.45 |
| U7C U8C G9A U10C U11A C12A C13G | aptazyme ON/OFF ratio | 1.4 |
| U7C U8C U10A U11C C12G C13U | aptazyme ON/OFF ratio | 1.29 |
| U7C U8G G9A U10C U11A C12G C13G | aptazyme ON/OFF ratio | 1.09 |
| U7G U8G G9C U10C U11A C12G C13G | aptazyme ON/OFF ratio | 1.24 |
| U7G G9U U11C C12U | aptazyme ON/OFF ratio | 2.32 |
| U7C U10C U11G C12A C13A | aptazyme ON/OFF ratio | 1.11 |
| U7G U8C U11A C12U C13A | aptazyme ON/OFF ratio | 1.2 |
| U8C G9C U10C U11A C12U C13U | aptazyme ON/OFF ratio | 1.01 |
| U7G U8C U10C U11A | aptazyme ON/OFF ratio | 2.21 |
| U7G U10C U11G C12A C13G | aptazyme ON/OFF ratio | 1.07 |
| U8C U10A U11A C12A C13G | aptazyme ON/OFF ratio | 1.07 |
| U7C U8C U10A U11A C12G C13A | aptazyme ON/OFF ratio | 1.14 |
| U7A U8G G9U U10A U11C C12U C13U | aptazyme ON/OFF ratio | 1.2 |
| U8G G9U U11C C12U C13U | aptazyme ON/OFF ratio | 1.03 |
